Entries and their viability, T/C values follow.
Test system: 695427-040-R-J1-PDC complex spheroid viability
Assay: Anticancer human tumor 695427-040-R-J1-PDC patient-derived colon adenocarcinoma cell line growth inhibition [RAS]
Conditions: second compound 0.1 µM; first compound 0.00316 µM; hits give low values
Give just the numeric value; % need not be written.

Some entries whose results are on file:
>  <compound>
C=CC(=O)Nc1cc(Nc2nccc(-c3cn(C)c4ccccc34)n2)c(OC)cc1N(C)CCN(C)C + C=CC(=O)N1CCN(c2nc(OCC3CCCN3C)nc3c(F)c(-c4nc(N)cc(C)c4C(F)(F)F)c(Cl)cc23)C(C)C1

>  <viability, T/C, %>
94.7

$$$$
>  <compound>
O=C(c1ccc(F)c(F)c1Nc1ccc(I)cc1F)N1CC(O)([C@@H]2CCCCN2)C1 + C=CC(=O)N1CCN(c2nc(OCC3CCCN3C)nc3c(F)c(-c4nc(N)cc(C)c4C(F)(F)F)c(Cl)cc23)C(C)C1

>  <viability, T/C, %>
87.7

$$$$
>  <compound>
CCN1CCN(Cc2ccc(Nc3ncc(F)c(-c4cc(F)c5nc(C)n(C(C)C)c5c4)n3)nc2)CC1 + C=CC(=O)N1CCN(c2nc(OCC3CCCN3C)nc3c(F)c(-c4nc(N)cc(C)c4C(F)(F)F)c(Cl)cc23)C(C)C1

>  <viability, T/C, %>
89

$$$$
>  <compound>
Nc1ccn(C2OC(CO)C(O)C2(F)F)c(=O)n1 (stereo unspecified) + C#Cc1c(F)ccc2cc(O)cc(-c3ncc4c(N5CC6CCC(C5)N6)nc(OCC56CCCN5CC(F)C6)nc4c3F)c12

>  <viability, T/C, %>
87.7

$$$$
>  <compound>
C=CC(=O)Nc1cc(Nc2nccc(-c3cn(C)c4ccccc34)n2)c(OC)cc1N(C)CCN(C)C + C#Cc1c(F)ccc2cc(O)cc(-c3ncc4c(N5CC6CCC(C5)N6)nc(OCC56CCCN5CC(F)C6)nc4c3F)c12

>  <viability, T/C, %>
93.1

$$$$

Okay, next one:
QUERY: Annotate the compound Nc1ccn(C2OC(CO)C(O)C2(F)F)c(=O)n1 (stereo unspecified) + C=CC(=O)N1CCN(c2nc(OCC3CCCN3C)nc3c(F)c(-c4nc(N)cc(C)c4C(F)(F)F)c(Cl)cc23)C(C)C1 with its measured viability, T/C.
RESULT: 96.9

----------
Tested on: 695427-040-R-J1-PDC complex spheroid viability
Assay: Anticancer human tumor 695427-040-R-J1-PDC cell line growth inhibition [RAS];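 further: viability read after seven days of drug exposure; 100% = DMSO vehicle control viability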
Conditions: second compound 10 µM; first compound 0.316 µM; hits give low values
endpoint name: viability, T/C (%)
Give just the numeric value; % need not be written.

>  <compound>
CC(Nc1ccc2c(c1)OCCn1cc(N3C(=O)OCC3C(F)F)nc1-2)C(N)=O (stereo not drawn) + C#Cc1c(F)ccc2cc(O)cc(-c3ncc4c(N5CC6CCC(C5)N6)nc(OCC56CCCN5CC(F)C6)nc4c3F)c12

>  <endpoint name>
viability, T/C

>  <unit symbol>
%

>  <value reported>
17.1

$$$$

QUERY: Annotate the compound Nc1ccn(C2OC(CO)C(O)C2(F)F)c(=O)n1 (stereo not drawn) + C#Cc1c(F)ccc2cc(O)cc(-c3ncc4c(N5CC6CCC(C5)N6)nc(OCC56CCCN5CC(F)C6)nc4c3F)c12 with its measured viability, T/C.
RESULT: 33.4

QUERY: Annotate the compound NC1c2ccccc2OC12CCN(c1cnc3c(N4CCCc5ncccc54)n[nH]c3n1)CC2 (stereo not drawn) + C#Cc1c(F)ccc2cc(O)cc(-c3ncc4c(N5CC6CCC(C5)N6)nc(OCC56CCCN5CC(F)C6)nc4c3F)c12 with its measured viability, T/C.
RESULT: 10.8
